Run description: Chemical stability (relative purity loss) of peptide compounds in buffer formulations (Table 6)
Assay type: physicochemical
Study conditions: 50 mm hcl + acetonitrile, Buffer pH 1.1 (head; method: 50 mM HCl pH 1.2 + acetonitrile 3:1), 2° C. and 37° C., read-out: Chemical stability (relative purity loss), Buffer pH 1.1
Numbered stars: 1 amine (or outer) side, 2 acyl side, 3 side chain; on linkers, the order of the positions; unused ones are H or OH. Bridge positions count the residues as written; N and C are the ends. Square brackets hold non-standard residues; d marks the D form. Peptide text beside a SMILES is read from it. * marks the point of attachment. Lys(Me,(CH2)4NMe(CH2)4CO) = CN(CCCCC(=O)[*:3])CCCCN(C)CCCC[C@H](N[*:1])C(=O)[*:2]; X3 = Cc1cccc2c(C[C@H](N[*:1])C(=O)[*:2])cn(C)c12; Trp(7-Me) = Cc1cccc2c(C[C@H](N)C(=O)O)c[nH]c12; NH(2-(3-pyridyl)ethyl) = c1cncc(CCN*)c1; Sebacoyl = O=C(CCCCCCCCC(=O)[*:2])[*:1]; 2Nal = N[C@@H](Cc1ccc2ccccc2c1)C(=O)O; Suberoyl = O=C(CCCCCCC(=O)[*:2])[*:1]; 3Pal = N[C@@H](Cc1cccnc1)C(=O)O; Lys(Me) = CNCCCC[C@H](N)C(=O)O; Thp = NC1(C(=O)O)CCOCC1; Me2NCH2CH2 = CN(C)CC*; Aib = CC(C)(N)C(=O)O; Sar = CNCC(=O)O
Readout name: degraded at 24 h (%)
Give just the number in %; leave the unit off.

Cc1cccc2c(C[C@@H]3NC(=O)CCCCCCC(=O)NCCCC[C@@H](C(=O)N[C@@H](CC(N)=O)C(=O)N[C@@H](Cc4cccnc4)C(=O)N(C)CC(N)=O)NC(=O)C(C)(C)NC(=O)[C@H](Cc4ccc5ccccc5c4)NC(=O)[C@H](Cc4ccc(OCCN(C)C)cc4)NC(=O)C4(CCOCC4)NC(=O)[C@H](CCC(N)=O)NC3=O)c[nH]c12 [compound 12] ([Trp(7-Me)]Q[Thp]Y(Me2NCH2CH2)[2Nal][Aib]KN[3Pal][Sar]-NH2; linker N-7 via Suberoyl) | 12
Cc1cccc2c(C[C@@H]3NC(=O)CCCCCCCCC(=O)N(C)CCCC[C@@H](C(=O)NCC(=O)NCCc4cccnc4)NC(=O)C(C)(C)NC(=O)[C@H](Cc4ccc5ccccc5c4)NC(=O)[C@H](Cc4ccc(OCCN(C)C)cc4)NC(=O)C4(CCOCC4)NC(=O)[C@H](CC(C)C)NC3=O)c[nH]c12 [compound 17] ([Trp(7-Me)]L[Thp]Y(Me2NCH2CH2)[2Nal][Aib][Lys(Me)]G-{NH(2-(3-pyridyl)ethyl)}; linker N-7 via Sebacoyl) | 0

Next compound, degraded at 24 h to be filled in.
Field degraded at 24 h (entry Cc1cccc2c(C[C@@H]3NC(=O)CCCCN(C)CCCCN(C)CCCC[C@@H](C(=O)NCC(=O)NCCc4cccnc4)NC(=O)C(C)(C)NC(=O)[C@H](Cc4ccc5ccccc5c4)NC(=O)[C@H](Cc4ccc(OCCN(C)C)cc4)NC(=O)C4(CCOCC4)NC(=O)[C@H](CC(C)C)NC3=O)cn(C)c12 [compound 49] ([X3]L[Thp]Y(Me2NCH2CH2)[2Nal][Aib][Lys(Me,(CH2)4NMe(CH2)4CO)]G-{NH(2-(3-pyridyl)ethyl)}; lactam N-7) ) reads 0

----------
Run description: Chemical stability (relative purity loss) of peptide compounds in buffer formulations (Table 6)
Type: physicochemical
Study conditions: 50 mm hcl + acetonitrile, Buffer pH 1.1 (head; method: 50 mM HCl pH 1.2 + acetonitrile 3:1), 2° C. and 37° C., read-out: Chemical stability (relative purity loss), Buffer pH 1.1
Bridge positions count the residues as written; N and C are the ends. Square brackets hold non-standard residues; d marks the D form. Peptide text beside a SMILES is read from it. * marks the point of attachment. Trp(7-Me) = Cc1cccc2c(C[C@H](N)C(=O)O)c[nH]c12; αMeLys(Me2) = CN(C)CCCC[C@](C)(N)C(=O)O; 2Nal = N[C@@H](Cc1ccc2ccccc2c1)C(=O)O; C12 diacid = O=C(O)CCCCCCCCCCC(=O)*; 3Pal = N[C@@H](Cc1cccnc1)C(=O)O; Aun = NCCCCCCCCCCC(=O)O; Thp = NC1(C(=O)O)CCOCC1; Me2NCH2CH2 = CN(C)CC*; Aib = CC(C)(N)C(=O)O; Sar = CNCC(=O)O
Readout name: degraded at 24 h

Cc1cccc2c(C[C@@H]3NC(=O)CCCCCCCCCCC(=O)NCCCC[C@@H](C(=O)N[C@@H](CC(N)=O)C(=O)N[C@@H](Cc4cccnc4)C(=O)N(C)CC(N)=O)NC(=O)C(C)(C)NC(=O)[C@H](Cc4ccc5ccccc5c4)NC(=O)[C@H](Cc4ccc(OCCN(C)C)cc4)NC(=O)C4(CCOCC4)NC(=O)[C@H](CCC(N)=O)NC3=O)c[nH]c12 [compound 10] ([Trp(7-Me)]Q[Thp]Y(Me2NCH2CH2)[2Nal][Aib]KN[3Pal][Sar]-NH2; linker N-7 via C12 diacid) | 6.1%

Field degraded at 24 h (entry Cc1cccc2c(C[C@@H]3NC(=O)CCCCCCCCCCNC(=O)CC[C@@H](C(=O)N[C@@H](CC(N)=O)C(=O)N[C@@H](Cc4cccnc4)C(=O)N(C)CC(N)=O)NC(=O)[C@](C)(CCCCN(C)C)NC(=O)[C@H](Cc4ccc5ccccc5c4)NC(=O)[C@H](Cc4ccc(OCCN(C)C)cc4)NC(=O)C4(CCOCC4)NC(=O)[C@H](CCC(N)=O)NC3=O)c[nH]c12 [compound 20] ([Aun][Trp(7-Me)]Q[Thp]Y(Me2NCH2CH2)[2Nal][αMeLys(Me2)]EN[3Pal][Sar]-NH2; lactam N-8) ) reads 4.9%

----------
The entries below are paired with their reported IC50.
Target desc: UniProt Q5VWK5
Sequence (Q5VWK5 24-353 limits assumed): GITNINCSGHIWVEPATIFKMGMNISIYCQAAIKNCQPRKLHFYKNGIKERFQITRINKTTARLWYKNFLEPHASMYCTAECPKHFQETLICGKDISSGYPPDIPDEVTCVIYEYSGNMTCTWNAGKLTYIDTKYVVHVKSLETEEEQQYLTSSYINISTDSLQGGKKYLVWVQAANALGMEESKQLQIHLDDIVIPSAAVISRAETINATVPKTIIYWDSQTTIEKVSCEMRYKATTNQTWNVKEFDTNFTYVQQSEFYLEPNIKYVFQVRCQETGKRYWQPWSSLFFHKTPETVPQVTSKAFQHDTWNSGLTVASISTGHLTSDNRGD
Numbered stars: 1 amine (or outer) side, 2 acyl side, 3 side chain; on linkers, the order of the positions; unused ones are H or OH. Bridge positions count the residues as written; N and C are the ends. Square brackets hold non-standard residues; d marks the D form. Peptide text beside a SMILES is read from it. * marks the point of attachment. X2 = O=C(Cc1ccc(-c2ccc(CC(=O)[*:2])cc2)cc1)[*:1]; Trp(7-Me) = Cc1cccc2c(C[C@H](N)C(=O)O)c[nH]c12; Sebacoyl = O=C(CCCCCCCCC(=O)[*:2])[*:1]; NH(CH2)9CO = O=C(CCCCCCCCCN[*:1])[*:2]; 2Nal = N[C@@H](Cc1ccc2ccccc2c1)C(=O)O; d2Nal = N[C@H](Cc1ccc2ccccc2c1)C(=O)O; X4 = O=C(CCCCCCCCCCCCCCCN[*:1])[*:2]; 3Pal = N[C@@H](Cc1cccnc1)C(=O)O; Lys(Me) = CNCCCC[C@H](N)C(=O)O; 12Ado = NCCCCCCCCCCCC(=O)O; AEEEA = NCCOCCOCCOCC(=O)O; Aun = NCCCCCCCCCCC(=O)O; Thp = NC1(C(=O)O)CCOCC1; Me2NCH2CH2 = CN(C)CC*; Aib = CC(C)(N)C(=O)O; Aoc = NCCCCCCCC(=O)O; Sar = CNCC(=O)O
Give just the number in nM; leave the unit off.

Answered cases to consult:
Cc1cccc2c(C[C@@H]3NC(=O)CCCCCCCCCCNC(=O)CC[C@@H](C(=O)N[C@@H](CC(N)=O)C(=O)N[C@@H](Cc4cccnc4)C(=O)N(C)CC(N)=O)NC(=O)C(C)(C)NC(=O)[C@H](Cc4ccc5ccccc5c4)NC(=O)[C@H](Cc4ccc(OCCN(C)C)cc4)NC(=O)C4(CCOCC4)NC(=O)[C@H](CC(C)C)NC3=O)c[nH]c12 [compound 7] ([Aun][Trp(7-Me)]L[Thp]Y(Me2NCH2CH2)[2Nal][Aib]EN[3Pal][Sar]-NH2; lactam N-8) | 2.41
Cc1cccc2c(C[C@@H]3NC(=O)CCCCCCCNC(=O)CC[C@@H](C(=O)N[C@@H](CC(N)=O)C(=O)N[C@@H](Cc4cccnc4)C(=O)N(C)CC(N)=O)NC(=O)C(C)(C)NC(=O)[C@H](Cc4ccc5ccccc5c4)NC(=O)[C@H](Cc4ccc(OCCN(C)C)cc4)NC(=O)C4(CCOCC4)NC(=O)[C@H](CCC(N)=O)NC3=O)c[nH]c12 [compound 6] ([Aoc][Trp(7-Me)]Q[Thp]Y(Me2NCH2CH2)[2Nal][Aib]EN[3Pal][Sar]-NH2; lactam N-8) | 0.67
Cc1cccc2c(C[C@@H]3NC(=O)Cc4ccc(cc4)-c4ccc(cc4)CC(=O)NCCCC[C@@H](C(=O)N[C@@H](CC(N)=O)C(=O)N[C@@H](Cc4cccnc4)C(=O)N(C)CC(N)=O)NC(=O)C(C)(C)NC(=O)[C@H](Cc4ccc5ccccc5c4)NC(=O)[C@H](Cc4ccc(OCCN(C)C)cc4)NC(=O)C4(CCOCC4)NC(=O)[C@H](CCC(N)=O)NC3=O)c[nH]c12 [compound 15] ([Trp(7-Me)]Q[Thp]Y(Me2NCH2CH2)[2Nal][Aib]KN[3Pal][Sar]-NH2; linker N-7 via X2) | 0.63
Cc1cccc2c(C[C@@H]3NC(=O)CCCCCCCCCCCNC(=O)CC[C@@H](C(=O)N[C@@H](CC(N)=O)C(=O)N[C@@H](Cc4cccnc4)C(=O)N(C)CC(N)=O)NC(=O)C(C)(C)NC(=O)[C@H](Cc4ccc5ccccc5c4)NC(=O)[C@H](Cc4ccc(OCCN(C)C)cc4)NC(=O)C4(CCOCC4)NC(=O)[C@H](CCC(N)=O)NC3=O)c[nH]c12 [compound 2] ([12Ado][Trp(7-Me)]Q[Thp]Y(Me2NCH2CH2)[2Nal][Aib]EN[3Pal][Sar]-NH2; lactam N-8) | 0.32
Cc1cccc2c(C[C@@H]3NC(=O)CCCCCCCCC(=O)N(C)CCCC[C@@H](C(=O)N[C@@H](CC(N)=O)C(=O)N[C@@H](Cc4cccnc4)C(=O)N(C)CC(N)=O)NC(=O)C(C)(C)NC(=O)[C@H](Cc4ccc5ccccc5c4)NC(=O)[C@H](Cc4ccc(OCCN(C)C)cc4)NC(=O)C4(CCOCC4)NC(=O)[C@H](CCC(N)=O)NC3=O)c[nH]c12 [compound 19] ([Trp(7-Me)]Q[Thp]Y(Me2NCH2CH2)[2Nal][Aib][Lys(Me)]N[3Pal][Sar]-NH2; linker N-7 via Sebacoyl) | 0.63
Cc1cccc2c(C[C@@H]3NC(=O)CCCCCCCCCCCCCCCNC(=O)CC[C@@H](C(=O)N[C@@H](CC(N)=O)C(=O)N[C@@H](Cc4cccnc4)C(=O)N(C)CC(N)=O)NC(=O)C(C)(C)NC(=O)[C@H](Cc4ccc5ccccc5c4)NC(=O)[C@H](Cc4ccc(OCCN(C)C)cc4)NC(=O)C4(CCOCC4)NC(=O)[C@H](CCC(N)=O)NC3=O)c[nH]c12 [compound 3] ([X4][Trp(7-Me)]Q[Thp]Y(Me2NCH2CH2)[2Nal][Aib]EN[3Pal][Sar]-NH2; lactam N-8) | 1.33
Cc1cccc2c(C[C@@H]3NC(=O)CCCCCCCCCCNC(=O)CC[C@@H](C(=O)N[C@@H](CC(N)=O)C(=O)N[C@@H](Cc4cccnc4)C(=O)N(C)CC(N)=O)NC(=O)C(C)(C)NC(=O)[C@@H](Cc4ccc5ccccc5c4)NC(=O)[C@H](Cc4ccc(OCCN(C)C)cc4)NC(=O)C4(CCOCC4)NC(=O)[C@H](CCC(N)=O)NC3=O)c[nH]c12 [compound 4] ([Aun][Trp(7-Me)]Q[Thp]Y(Me2NCH2CH2)[d2Nal][Aib]EN[3Pal][Sar]-NH2; lactam N-8) | 0.62
Cc1cccc2c(C[C@@H]3NC(=O)CCCCCCCCCNC(=O)CC[C@@H](C(=O)N[C@@H](CC(N)=O)C(=O)N[C@@H](Cc4cccnc4)C(=O)N(C)CC(N)=O)NC(=O)C(C)(C)NC(=O)[C@H](Cc4ccc5ccccc5c4)NC(=O)[C@H](Cc4ccc(OCCN(C)C)cc4)NC(=O)C4(CCOCC4)NC(=O)[C@H](CC(C)C)NC3=O)c[nH]c12 [compound 8] ([NH(CH2)9CO][Trp(7-Me)]L[Thp]Y(Me2NCH2CH2)[2Nal][Aib]EN[3Pal][Sar]-NH2; lactam N-8) | 1.69

Next compound, IC50 to be filled in.
Field IC50 (entry Cc1cccc2c(C[C@@H]3NC(=O)COCCOCCOCCNC(=O)CC[C@@H](C(=O)N[C@@H](CC(N)=O)C(=O)N[C@@H](Cc4cccnc4)C(=O)N(C)CC(N)=O)NC(=O)C(C)(C)NC(=O)[C@H](Cc4ccc5ccccc5c4)NC(=O)[C@H](Cc4ccc(OCCN(C)C)cc4)NC(=O)C4(CCOCC4)NC(=O)[C@H](CCC(N)=O)NC3=O)c[nH]c12 [compound 14] ([AEEEA][Trp(7-Me)]Q[Thp]Y(Me2NCH2CH2)[2Nal][Aib]EN[3Pal][Sar]-NH2; lactam N-8) ) reads 0.46
